Source of measurements: ChEMBL document CHEMBL1201862

Test system: SK-MEL-2
assayDetails: NCI tumour cell line growth inhibition, 48 h
The source made the active and inactive calls. Cut-off read from the data, not from the text of the source: active = GI50 up to about 1.1 µM and inactive = higher.
Entries annotated with measured GI50

[[record]]
compound = "CC(C)=C[C@@H]1O[C@H](O)[C@@H]([C@H]2CC[C@@]3(C)[C@@H]4CC[C@H]5C(C)(C)C(=O)CC[C@@]56C[C@@]46CC[C@]23C)[C@@H]1O"
measuredendpoint = "GI50"
result = "20 µM (inactive)"

[[record]]
compound = "CCOC(=O)C1CCCCN1CCc1c[nH]c2ccccc12 (stereo not given)"
measuredendpoint = "GI50"
result = "> 100 µM (inactive)"

[[record]]
compound = "COc1ccc2[nH]c3c(C)c4cc[n+](C)cc4c(C)c3c2c1"
measuredendpoint = "GI50"
result = "2.87 µM (inactive)"

[[record]]
compound = "CC1(C2CCC3(C)OC3C2)CO1 (stereo not given)"
measuredendpoint = "GI50"
result = "> 100 µM (inactive)"


[ask] Requested field: GI50. Item: `O=C(c1c(F)c(F)c(F)c(F)c1F)n1c(O)nc2ccccc21`
[reply] 4.2 µM (inactive)

* * *

Test system: OVCAR-8
assayDetails: NCI tumour cell line growth inhibition, 48 h
The source made the active and inactive calls. Rule as the data show it: active = GI50 up to about 1.1 µM and inactive = higher.
Your reply should match one of these outcome classes. YES for active, NO for inactive

[[record]]
molecule = "O=C(CC(=O)N1N=C(N(c2ccccc2)c2ccccc2)CC1c1ccccc1)Nc1ccccc1 (stereo not given)"
measuredon = "OVCAR-8"
qualitativelabel = "NO"

[[record]]
molecule = "N=C(Nc1nc(-c2ccccn2)cc2ccccc12)c1ccccn1"
measuredon = "OVCAR-8"
qualitativelabel = "YES"


[ask] Record lookup: outcome of this test for `CC(C)[Si](OC1=CCC[C@H]2NC(=O)[C@@H](Cc3ccccc3)[C@@]12C)(C(C)C)C(C)C` ?
[reply] NO

[ask] Which outcome was assigned to `Oc1ccc2c(c1)c1c(n2CCN2CCOCC2)-c2ccccc2CC1` in this test?
[reply] NO

[ask] What did this assay record as the result for `O=[N+]([O-])c1ccc(-c2nc3cc(Cl)ccc3[nH]2)cc1` ?
[reply] NO

[ask] Please indicate how the test categorized `O=c1[nH]nc(-c2ccccc2)c2[nH]c(-c3ccccc3)cc12` .
[reply] NO

[ask] Could you kindly confirm the outcome this assay logged for CC1(C(=O)O)CCCC1C(=O)O (stereo not given) ?
[reply] NO

[ask] Look up the recorded call for `N[C@H](Cc1ccc2oc3cc(=O)c4ccccc4c-3nc2c1)C(=O)O` in this test.
[reply] NO

[ask] State the result this test recorded for `COc1ccc(SCc2cc(OCc3ccccc3)c(OCc3ccccc3)c(OCc3ccccc3)c2)cc1` .
[reply] NO

[ask] What was the test verdict on `CCOC(=O)C(COS(C)(=O)=O)(COS(C)(=O)=O)C(=O)OCC` ?
[reply] NO

* * *

Tested on: HCT-116
assayDetails: NCI tumour cell line growth inhibition, 48 h
Calls of active or inactive are those of the source. Cut-off read from the data, not from the text of the source: active = GI50 up to about 1.1 µM and inactive = higher.
measuredEndpoint: GI50

[[record]]
molecule = "CO/N=C(\\C(=O)Nc1cncs1)c1csc(N)n1"
measuredendpoint = "GI50"
result = "> 10 µM (inactive)"

[[record]]
molecule = "CSC1=NN(C(C)=O)C(C(OC(C)=O)C(OC(C)=O)C(OC(C)=O)C(COC(C)=O)OC(C)=O)S1 (configuration not stated)"
measuredendpoint = "GI50"
result = "> 100 µM (inactive)"


[ask] // returns reported GI50 for input OC1(c2ccc(Cl)cc2)c2c(c3ccccc3c3ccccc23)C2=NCCN21 (configuration not stated)
[reply] 10.9 µM (inactive)

[ask] Would you kindly share the measured GI50 for `COC(=O)/C=C/c1ccc(OP(=O)(O)O)c(OC)c1` ?
[reply] > 100 µM (inactive)

* * *

Test system: DU-145
assayDetails: NCI tumour cell line growth inhibition, 48 h
Activity calls are given as the source filed them. No stated cut-off is given here; in the data, active = GI50 up to about 1.1 µM and inactive = higher.
Outcome (select one): y for active, n for inactive

[[record]]
compound = "Cn1c2c(c3ccccc31)CCN=C2C1CCCOC1=O (stereo not drawn)"
measuredon = "DU-145"
qualitativelabel = "n"


[ask] Which outcome was assigned to COc1ccc2c(c1OC)C(=O)N1C2=Cc2c(cc3c(c2OC)OCO3)CC1N(C)C (stereo not drawn) in this test?
[reply] n

[ask] // return assay outcome for `CC(/C=C/c1ccccc1)=N\NC(=S)N/N=C(C)/C=C/c1ccccc1`
[reply] n

[ask] For `Nc1nc(N)c(-c2cccc(C(F)(F)F)c2)c(Cc2cccc(C(F)(F)F)c2)n1` , which call appears in the assay record?
[reply] n

[ask] Recorded test call requested for `Cc1cc2c(cc1C)[n+]([O-])c(C(=O)/C=C/c1ccc3c(c1)OCO3)c(C)[n+]2[O-]`
[reply] n

[ask] Tell me the assay call for COc1cccc2c1C(=O)c1c(O)c3c(c(O)c1C2=O)CC(O)(C(O)CO)CC3OC1CC(N2CCOCC2)C(O)C(C)O1 (stereo not drawn) please.
[reply] y

[ask] What did the test return for `Cc1cc(-c2ccc(C(=O)C(Cl)(Cl)Cl)[nH]2)on1` ?
[reply] n

* * *

Test system: HOP-92
assayDetails: NCI tumour cell line growth inhibition, 48 h
Active and inactive are the calls of the source. Rule as the data show it: active = GI50 up to about 1.1 µM and inactive = higher.
Outcome (select one): yes for active, no for inactive

[[record]]
compound = "CNc1ccc([S+]([O-])Nc2ccc(OC)cc2)cc1 (stereo not drawn)"
qualitativelabel = "no"

[[record]]
compound = "O=C1OCC2=Nc3cccc4cccc(c34)N12"
qualitativelabel = "yes"


[ask] How did this test come out for `O=C1c2ccccc2CN1c1ccc(O)cc1` ?
[reply] no

[ask] What classification did `N#Cc1c(-c2ccccc2)nc(-c2ccccc2)sc1=S` end up with in this test?
[reply] no

[ask] How was `Nc1cnc2c(c1)c(=O)nc1n2CCS1` classified in this test?
[reply] no

[ask] Could you check what this test reported for `CC[C@@]1(OP(=O)(O)O)C(=O)OCc2c1cc1n(c2=O)Cc2cc3ccccc3nc2-1` ?
[reply] yes

[ask] Which result was noted for this compound in the test: `CC(=O)c1ccc(/N=N/N2CCCC2)cc1`
[reply] no

[ask] What classification did `Cc1cc(-c2nc3c(O)cccc3s2)ccc1N` end up with in this test?
[reply] no

* * *

Listed here: items and their measured GI50.
System: TK-10
assayDetails: NCI tumour cell line growth inhibition, 48 h
Active and inactive are the calls of the source. No stated cut-off is given here; in the data, active = GI50 up to about 1.1 µM and inactive = higher.

[[record]]
molecule = "CNc1ccc([S+]([O-])Nc2ccc(OC)cc2)cc1 (stereo unspecified)"
measuredon = "TK-10"
result = "> 100 µM (inactive)"


[ask] Fill in the blank: the reported GI50 of CCOC(=O)CC1c2ccc(O)cc2OC(=O)C1c1ccc(N)cc1 (stereo unspecified) is ____.
[reply] > 100 µM (inactive)

* * *

Test system: NCI-H23
assayDetails: NCI tumour cell line growth inhibition, 48 h
Calls of active or inactive are those of the source. Cut-off read from the data, not from the text of the source: active = GI50 up to about 1.1 µM and inactive = higher.
GI50 overview

Please review the following examples before continuing.
[[record]]
compound = "CC(C)(C)C(=O)CP(=O)(O)O"
measuredon = "NCI-H23"
measuredendpoint = "GI50"
result = "> 100 µM (inactive)"

[[record]]
compound = "O=P(OCc1ccccc1)(OCc1ccccc1)C(O)/C=C/c1ccccc1 (stereo not given)"
measuredon = "NCI-H23"
measuredendpoint = "GI50"
result = "20.2 µM (inactive)"

[[record]]
compound = "COc1ccc(C(SCCO)(c2ccccc2)c2ccccc2)cc1"
measuredon = "NCI-H23"
measuredendpoint = "GI50"
result = "16.9 µM (inactive)"


[ask] Param item = `O=C(N/N=C(COc1cccc(Cl)c1)\N=C\c1cccnc1)c1ccncc1` ; retrieve measured GI50.
[reply] > 100 µM (inactive)

[ask] Which GI50 is listed for `S=C(N/N=C/c1ccccn1)N1CC2CCC(CC2)C1` ?
[reply] < 0.01 µM (active)

[ask] What value of measured GI50 is listed for `CC1=[N+]([O-])C(C)(C)N(N=O)C1(C)C` ?
[reply] > 10 µM (inactive)

[ask] Record request: GI50 value, item `CO/C(=N\N=C\c1cccc(C(F)(F)F)c1)c1ccncc1`
[reply] 12 µM (inactive)

[ask] Fill in the blank: the reported GI50 of `COc1ccc(Cc2c3cc(OC)c(OC)cc3cc[n+]2C)cc1` is ____.
[reply] 8.3 µM (inactive)

* * *

Test system: HOP-92
assayDetails: NCI tumour cell line growth inhibition, 48 h
Active and inactive are the calls of the source. Rule as the data show it: active = GI50 up to about 1.1 µM and inactive = higher.
measuredEndpoint: GI50

// below: answered compounds
[[record]]
compound = "CCOC(=O)C1CCCCN1CCc1c[nH]c2ccccc12 (stereo unspecified)"
result = "16 µM (inactive)"

[[record]]
compound = "Cc1ccc(Cc2n[nH]c(=O)n2N2C(=O)c3ccccc3C2=O)cc1"
result = "> 100 µM (inactive)"

[[record]]
compound = "Cc1nc2c(O)cccc2c(=O)[nH]1"
result = "845 µM (inactive)"


[ask] For the compound O=C(CC(=O)N1N=C(N(c2ccccc2)c2ccccc2)CC1c1ccccc1)Nc1ccccc1 (stereo unspecified) , what GI50 is on record?
[reply] > 100 µM (inactive)

[ask] What does the data say about its GI50? Entry: `O=C(Nc1ccc(Cl)cc1Cl)/C(Cl)=C1/Sc2ccccc2NC1=O`
[reply] 16.8 µM (inactive)

[ask] Requested field: GI50. Item: `O=C(O)Cc1ccc(/N=N/c2c(O)c(C(=O)O)cc3ccccc23)cc1`
[reply] > 100 µM (inactive)
